Listed next: entries and their corresponding growth.
Tested on: T-47D breast
Test: NCI-60 one-dose screen, 48 h (100 = growth as untreated, 0 = no growth, -100 = all killed)
Conditions: 10 µM unless noted
Compounds without any hit were thinned out: in the full panel of roughly 83,000, 20% have a hit.
Form entry: value (%) — number only.

Take a look at these entries with their results.
compound	unit-abbreviation	growth
CN(C)c1ccc(C(=NO)c2ccc(N(C)C)cc2)cc1	%	45.8
COc1cc(C#Cc2ccc(=O)oc2C#Cc2ccccc2)cc(OC)c1OC	%	27.6
CCn1c2ccc(O)cc2c2c(C)c3c[n+](C(C)C)ccc3c(C)c21	%	-15.4
C=C(C)[C@@H]1CC[C@]2(CO)CC[C@]3(C)[C@H](CC[C@@H]4[C@@]5(C)CCC(NCCc6ccc(O)cc6)C(C)(C)[C@@H]5CC[C@]43C)[C@@H]12 (some centres undefined)	%	-66.3
COc1cc2c(cc1O)[C@@]1(C)[C@H](c3ccccc3Br)OC(=O)N1CC2	%	65.4

Can you look up growth on T-47D breast for CN(Cc1cnc2nc(N)nc(N)c2n1)c1c(Cl)cc(C(=O)NC(CCC(=O)O)C(=O)O)cc1Cl (centres undefined) ? 53.2

Hi! What's the reported growth for CCN(CC)CCOc1ccc(Nc2ncc3cc(-c4ccc(O)cc4)c(=O)n(C)c3n2)cc1 on T-47D breast? 67.4

Lab request: please report growth under test system T-47D breast for CCCCNC1=C(OCC)C(=O)c2ccccc2C1=O 89.6

Could you share what growth was measured for O=C1/C(=C/c2ccc(Br)cc2)COc2ccc(O)c(O)c21 , tested on T-47D breast? -16.3
